Assay: Drug repurposing screens with cells derived from glioblastoma tumor samples (AID 1345199); note: % is set by controls: 0 for no effect and ±100 for the full control effect; nearly all actives have a fitted effect of over 40% in size
Conditions: GBM patient neurospheres viability, ATP luminescence, 48 h; at 21.3 µM (top of the series); tumour line A
Protocol: CD133+ cells were isolated from GBM patient biopsies and cultured as neurospheres. Neurospheres from four patients were used to screen the NCATS pharmaceutical collection (NPC) library of approved drugs and bioactive compounds. […] The neurospheres were incubated with drugs for 48 hours in 1536-well format, then assayed with an ATP content cell viability assay. […]
Inconclusive results are not listed.
observedProperty: activity, negative = cell killing (%)
Response body: numeric value in %, unit text excluded.

compound=CCN(CC)CCc1nc(-c2ccccc2)no1 observedresult=-18.4
compound=O=C(O)[C@@H]1[C@H]2C[C@H]3c4[nH]c5ccccc5c4CCN3C[C@@H]2CC[C@@H]1O observedresult=-34.6
compound="COCC(=O)Nc1c(I)c(C(=O)NCC(O)CO)c(I)c(C(=O)N(C)CC(O)CO)c1I (configuration not stated)" observedresult=-10.5
compound=CC(=O)OCC(=O)[C@@]1(O)CC[C@H]2[C@@H]3CCC4=CC(=O)C=C[C@]4(C)[C@@]3(F)[C@@H](O)C[C@@]21C observedresult=-7.16

[Q] Note activity, negative = cell killing for the compound shown: CCCCC1(COC(=O)CCC(=O)O)C(=O)N(c2ccccc2)N(c2ccccc2)C1=O
[A] -29.7

[Q] Note activity, negative = cell killing for the compound shown: Cc1ccsc1/C=C/C1=NCCCN1C
[A] -22.2

[Q] Note activity, negative = cell killing for the compound shown: CC(=O)[C@@]1(O)CC[C@H]2[C@@H]3C[C@H](C)C4=CC(=O)C=C[C@]4(C)[C@@]3(F)[C@@H](O)C[C@@]21C
[A] 13.1

---

tested on: ATS95; test: qHTS profiling for inhibitors of Plasmodium falciparum proliferation (AID 504749); note: nearly all actives have a fitted effect of over 60% in size; details: P. falciparum in erythrocytes, SYBR Green DNA, 72 h; series mostly up to 28.7 µM
Results filed as inconclusive are left out. Calls of active or inactive are those of the source. The call rests on the fitted dose curve; in most records, active means well fitted inhibition curve with a large enough effect; inconclusive means small, poorly fitted or top-dose-only effect; inactive means flat fitted curve, though single readings scatter.
The reply should be one of these categories: active, inactive

compound=CCCCCCCCCCOc1cc2c(=O)c(C(=O)OCC)c[nH]c2cc1OCC assayedsystem=ATS95 qualitativelabel=active
compound=NC(N)=NCCN1CCCCCCC1 assayedsystem=ATS95 qualitativelabel=inactive
compound=CCOC(=O)[C@H](CCc1ccccc1)N[C@@H](C)C(=O)N1CCC[C@H]1C(=O)O assayedsystem=ATS95 qualitativelabel=inactive
compound="CCN(CC)CC1CCCCN1CC(=O)N1c2ccccc2C(=O)Nc2cccnc21 (centres undefined)" assayedsystem=ATS95 qualitativelabel=inactive
compound=CC(C)=CCC/C(C)=C/CO assayedsystem=ATS95 qualitativelabel=inactive
compound=CC(=O)Nc1ccc(OCCOCCOc2ccc(NC(C)=O)cc2)cc1 assayedsystem=ATS95 qualitativelabel=inactive
compound=Cc1[nH]c(C)c(Cl)c(=O)c1Cl assayedsystem=ATS95 qualitativelabel=inactive
compound=COC(=O)c1cccnc1 assayedsystem=ATS95 qualitativelabel=inactive
compound=O=C(/C=C/c1ccccc1)OCc1ccccc1 assayedsystem=ATS95 qualitativelabel=inactive
compound=Cc1cccc(C(=O)O)c1O assayedsystem=ATS95 qualitativelabel=inactive

Lab note: next compound to report on.
[Q] For this compound, state the assay outcome: CN1CCN(C(=O)C2CCCCC2)CC1
[A] inactive

---

Assay: qHTS of pediatric cancer cell lines to identify multiple opportunities for drug repurposing: Primary screen for control Hh wild type fibroblast cells (AID 1347106);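 note: % is set by controls: 0 for no effect and ±100 for the full control effect; a drop in luminescence marks cytotoxicity and a rise apparent proliferation; nearly all actives have a fitted effect of over 55% in size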
Conditions: Hh wild-type fibroblast viability, CellTiter-Glo luminescence, 48 h; series mostly up to 46 µM
Experimental: Drug repurposing or repositioning has been offered as a strategy for drug development in oncology programs. […] [1] Shen, M et al. Quantitative high-throughput phenotypic screening of pediatric cancer cell lines identifies multiple opportunities for drug repurposing. […] Cells were assayed in growth media at a density of 500-1,000 cells/well. […] After a 15 min incubation at room temperature, samples were analyzed for luminescence intensity using a ViewLux High-throughput CCD imager equipped with clear filters.
Records with an inconclusive call do not appear. Activity calls are given as the source filed them. Calls come from the whole dose curve; as a rule, active = well fitted cell-killing curve with a large enough effect; inconclusive = small, poorly fitted or top-dose-only effect; inactive = flat fitted curve, though single readings scatter.
observedProperty: activity change, negative = cytotoxic

Reference set, count: 4
compound=Cn1cc(C(=O)[C@@H]2CCc3nc[nH]c3C2)c2ccccc21 observedresult=inactive
compound=OCCN1C[C@H](O)[C@@H](O)[C@H](O)[C@H]1CO observedresult=inactive
compound=C=CCNC(N)=S observedresult=inactive
compound="CC(O)CCCCn1c(=O)c2c(ncn2C)n(C)c1=O (configuration not stated)" observedresult=inactive

[Q] Note activity change, negative = cytotoxic for the compound shown: O=C(O)Cc1ccc(CCNS(=O)(=O)c2ccc(Cl)cc2)cc1
[A] inactive

[Q] Note activity change, negative = cytotoxic for the compound shown: C[C@@H]1O[C@@H](OC[C@H]2O[C@@H](Oc3c(-c4ccc(O)c(O)c4)oc4cc(O)cc(O)c4c3=O)[C@H](O)[C@@H](O)[C@@H]2O)[C@H](O)[C@H](O)[C@H]1O
[A] inactive
